Data credit: patent US3931204A

# Experiment Description: Intravenous lethal dose (LD50) in mouse
# Test Settings: in vivo, solvent: C water, D glycofurol, E polyethylene glycol
Reported Metric: LD50 (mg/kg)
Only the number, expressed in mg/kg, is required.

The examples below pair each entry with its known result.
* CCCc1nc(NC(C)C)c2cscc2n1.O=C(O)/C=C\C(=O)O | 23
* CCCNc1nc(NC(C)C)c2cscc2n1.O=C(O)/C=C\C(=O)O | 21

Let us move to another entry and its LD50.
Enquiry: Need LD50, item CC1COCCN1c1nc(Cl)nc2cscc12.Cl (stereo not drawn)
Return: 117

###

# Tested on: dog anaesthetized with nembutal
# Experiment Description: Blood flow in thoracic aorta (cardiac output), vertebral artery (cerebral flow) and femoral artery (musculocutaneous peripheral flow), electromagnetic flow measurement, anaesthetized dog
# Type: in vivo
# Test Settings: 2 mg/kg animal body weight, intravenous, femoral artery
Reported Metric: increase in the femoral flow

The examples below pair each entry with its known result.
• CCCNc1nc(NC(C)C)c2cscc2n1.O=C(O)/C=C\C(=O)O [D] = marked increase
• Cl.Clc1nc(N2CCOCC2)c2cscc2n1 [B] = appreciable increase
• CCCc1nc(NC(C)C)c2cscc2n1.O=C(O)/C=C\C(=O)O [E] = appreciable increase
• CC(C)Nc1nc(Cl)nc2cscc12.Cl [A] = appreciable increase

Let us move to another entry and its increase in the femoral flow.
Enquiry: Need increase in the femoral flow, item CC1COCCN1c1nc(Cl)nc2cscc12.Cl (centres unmarked) [C]
Return: marked increase

###

# Experiment Description: Intravenous lethal dose (LD50) in rat
# Test Settings: in vivo, solvent: A propylene glycol + water, B polyethylene glycol + ethanol, C, F, G water, D glycofurol
Response field label: string, one of true (1) (LD50 strictly below 50 mg/kg) or false (0).

Solved entries:
- CCCNc1nc(OCC)nc2cscc12.Cl: true (1)
- CC1COCCN1c1nc(Cl)nc2cscc12.Cl (stereo not drawn): false (0)

Enquiry: Quick check: does `CC(C)Nc1nc(Cl)nc2cscc12.Cl` have LD50 under 50 mg/kg?
Return: false (0)

Enquiry: Quick check: does `Cl.Clc1nc(N2CCOCC2)c2cscc2n1` have LD50 under 50 mg/kg?
Return: false (0)

Enquiry: Quick check: does `CCCNc1nc(NC(C)C)c2cscc2n1.O=C(O)/C=C\C(=O)O` have LD50 under 50 mg/kg?
Return: true (1)
